Would you mind telling me the reported pIC50 of each entry?
Target: VLA-4 (a4b1) (Homo sapiens (Human), UniProt P05556+P13612)
Sequence (P13612 34-1032): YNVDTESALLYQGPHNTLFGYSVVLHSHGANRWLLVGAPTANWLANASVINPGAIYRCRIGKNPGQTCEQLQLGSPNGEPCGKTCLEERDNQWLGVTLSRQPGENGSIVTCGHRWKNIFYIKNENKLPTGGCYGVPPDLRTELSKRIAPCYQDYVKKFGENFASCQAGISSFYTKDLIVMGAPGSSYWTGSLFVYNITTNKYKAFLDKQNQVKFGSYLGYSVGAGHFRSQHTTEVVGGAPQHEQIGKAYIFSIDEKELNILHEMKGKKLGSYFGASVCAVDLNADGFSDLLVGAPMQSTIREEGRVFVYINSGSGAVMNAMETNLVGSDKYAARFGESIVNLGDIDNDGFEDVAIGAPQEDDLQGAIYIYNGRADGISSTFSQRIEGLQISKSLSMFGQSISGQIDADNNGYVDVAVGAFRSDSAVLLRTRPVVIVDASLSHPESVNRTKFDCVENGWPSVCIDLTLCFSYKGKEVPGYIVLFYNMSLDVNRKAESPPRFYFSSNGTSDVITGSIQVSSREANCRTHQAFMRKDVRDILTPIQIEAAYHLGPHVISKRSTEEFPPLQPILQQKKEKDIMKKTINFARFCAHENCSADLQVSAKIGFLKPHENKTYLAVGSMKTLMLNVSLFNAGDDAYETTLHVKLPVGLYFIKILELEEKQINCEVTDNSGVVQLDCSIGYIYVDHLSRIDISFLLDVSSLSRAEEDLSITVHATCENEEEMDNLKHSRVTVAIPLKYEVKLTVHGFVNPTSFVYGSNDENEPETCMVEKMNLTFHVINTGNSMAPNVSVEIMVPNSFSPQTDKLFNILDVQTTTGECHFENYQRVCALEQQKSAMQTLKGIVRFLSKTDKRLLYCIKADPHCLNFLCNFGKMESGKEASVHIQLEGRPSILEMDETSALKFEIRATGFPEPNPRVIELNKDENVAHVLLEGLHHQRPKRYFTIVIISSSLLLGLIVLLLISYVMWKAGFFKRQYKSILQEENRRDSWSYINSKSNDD
Sequence (P05556 21-798): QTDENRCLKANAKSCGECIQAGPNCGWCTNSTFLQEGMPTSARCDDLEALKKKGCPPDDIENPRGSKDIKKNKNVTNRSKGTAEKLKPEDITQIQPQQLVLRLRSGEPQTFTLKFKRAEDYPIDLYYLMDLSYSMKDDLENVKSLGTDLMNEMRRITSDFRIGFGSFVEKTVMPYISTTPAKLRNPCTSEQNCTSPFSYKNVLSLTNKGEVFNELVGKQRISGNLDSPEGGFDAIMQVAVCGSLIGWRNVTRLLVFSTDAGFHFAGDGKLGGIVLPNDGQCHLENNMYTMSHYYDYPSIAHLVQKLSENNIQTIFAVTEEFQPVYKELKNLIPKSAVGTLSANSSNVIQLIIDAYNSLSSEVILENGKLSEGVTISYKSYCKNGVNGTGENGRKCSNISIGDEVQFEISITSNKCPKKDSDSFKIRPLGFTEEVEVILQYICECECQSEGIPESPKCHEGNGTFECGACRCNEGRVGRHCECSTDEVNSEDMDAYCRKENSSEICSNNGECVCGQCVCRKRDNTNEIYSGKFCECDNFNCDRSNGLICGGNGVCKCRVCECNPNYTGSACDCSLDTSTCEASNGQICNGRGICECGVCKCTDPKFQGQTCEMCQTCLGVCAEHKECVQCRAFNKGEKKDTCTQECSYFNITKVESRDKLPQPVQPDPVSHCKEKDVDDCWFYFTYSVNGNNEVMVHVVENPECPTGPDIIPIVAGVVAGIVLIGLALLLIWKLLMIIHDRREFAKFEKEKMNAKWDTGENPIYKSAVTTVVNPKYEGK
Assay: sVCAM flow cytometry cell-based assay (inhibition of soluble VCAM-1 binding to G2 ALL cells);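 further: compounds at 0.1 to 1000 nM preincubated 30 min with G2 ALL cells, then VCAM/Fc added for 30 min, bound VCAM-1 detected by PE secondary antibody, percent binding cells by flow cytometry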
Settings: as listed in TABLE 5; read-out: sVCAM IC50
Give bare numbers, as −log10 of the molar value.

compound	pIC50
COCCOCCOCCOCc1cc(OC)c(-c2ccc(C[C@H](NC(=O)c3c(Cl)cc(C(=O)O)cc3Cl)C(=O)O)cc2)c(OC)c1 [Example C4]	8.77
COc1cccc(OC)c1-c1ccc(C[C@H](CC(=O)c2c(Cl)cc(C(=O)O)cc2Cl)C(=O)O)cc1 [Example C1]	8.31
CCOCc1cc(OC)c(-c2ccc(C[C@H](NC(=O)c3c(Cl)cc(C(=O)O)cc3Cl)C(=O)O)cc2)c(OC)c1 [Example C3]	8.87

# context switch: different compound, same pIC50
Query: Any idea what pIC50 was measured for COc1cc(CO)cc(OC)c1-c1ccc(C[C@H](NC(=O)c2c(Cl)cc(C(=O)O)cc2Cl)C(=O)O)cc1 [Example C2] ?
Reply: 8.42
